These entries and their values trace back to PubChem BioAssay (NCI).

System: DU-145 prostate
assayRemarks: NCI tumour cell line growth inhibition, 48 h
Kindly supply the reported TGI values for the records listed here.

As a guide, the following entries are already answered.
compound: Cc1ccc(C2=CC(=O)OC(C[P+](c3ccccc3)(c3ccccc3)c3ccccc3)(c3ccccc3)O2)cc1 (centres undefined)
assaySystem: DU-145 prostate
measuredValue: 30.3 µM
--
compound: CCC[CH2][Sn]([CH2]CCC)([O]C(=O)c1ccc(OC)c(OC)c1OC)[O][Sn]([CH2]CCC)([CH2]CCC)[O]C(=O)c1ccc(OC)c(OC)c1OC
assaySystem: DU-145 prostate
measuredValue: 2.17 µM
--
compound: C/C(N=NC(=S)N1CC2CCC(CC2)C1)=C1\C=CC=CN1O
assaySystem: DU-145 prostate
measuredValue: > 100 µM
--
compound: COC(=O)c1ccc2c(c1)C(=O)c1c-2n(CCCN=[N+]=[N-])c(=O)c2cc(OC)c(OC)cc12
assaySystem: DU-145 prostate
measuredValue: > 100 µM
--
compound: O=C(/C=C/c1ccc[nH]1)c1ccc(-n2ccc(C(F)(F)F)n2)cc1
assaySystem: DU-145 prostate
measuredValue: > 100 µM
--
compound: Cc1nc(Nc2cccnc2)sc1C(=O)/C=C/c1ccc(F)cc1
assaySystem: DU-145 prostate
measuredValue: 14.8 µM

For every item in the list below, what is its measured TGI?
1. C[C@H](CCC(=O)O)[C@H]1CC[C@H]2[C@@H]3C(=O)C[C@@H]4C[C@H](O)CC[C@]4(C)[C@H]3C[C@H](O)[C@]12C
2. CCN1CN(c2ccccc2)C2(CCN(CC3COc4ccccc4O3)CC2)C1=O (centres undefined)

Output line:
["> 100 µM", "> 100 µM"]

Input line: Look up TGI for this compound: CCNC(=S)NNC(=O)C12CC3CC(CC(C3)C1)C2
Output line: > 100 µM

====

Kindly supply the reported TGI values for the records listed here.
System: SW-620 colon
assayRemarks: NCI tumour cell line growth inhibition, 48 h

molecule: C[N+](C)([O-])CCOc1cc2c(c3ccccc13)-c1ccccc1C2=O
measuredValue: 86.3 µM
//
molecule: CC1(C)COC(c2cccc3c2C(=O)c2cccc(Cl)c2-3)=N1
measuredValue: > 100 µM
//
molecule: CCOC(=O)c1c(-c2ccc(O)c(OC)c2)c(C#N)c(=S)n(C2OC(CO)C(O)C(O)C2O)c1-c1ccccc1 (stereo not given)
measuredValue: > 100 µM
//
molecule: CCOC(=O)c1cccc(N=Nc2nc[nH]c2/C=C/C(=O)OC)c1
measuredValue: > 100 µM
//
molecule: O=C(Nc1cccc(C(F)(F)F)c1)c1ccc(NC2=C(Cl)C(=O)N(Cc3ccc(Cl)cc3Cl)C2=O)cc1
measuredValue: 6.05 µM

For every item in the list below, what is its measured TGI?
1. CSC1=N/C(=C\c2ccc(C)cc2)C(=O)N1CN1CCCCC1
2. Cc1c(N(C)C)ccc2c(=O)c3cccc(CC(=O)O)c3oc12
3. O=C1c2ccccc2C(=O)N1n1c(Cc2ccc([N+](=O)[O-])cc2)n[nH]c1=O
4. CC(C)c1cc2c(c(O)c1O)[C@@]1(C(=O)O)CCCC(C)(C)[C@@H]1CC2
5. CCOC(=O)c1nc2c(OC)nn(O)cc-2c1[N+](=O)[O-]

Output line:
> 100 µM
> 53.5 µM
> 100 µM
> 100 µM
29.1 µM
